System: P. falciparum stage V gametocytes
Parameters: BacTiter-Glo ATP luminescence viability of purified stage V gametocytes in 384-well plates, per cent inhibition versus DMSO
Particulars: 48 h, 5 µM; inhibitor
Hit rate of the full screen: of about 13,000 compounds, about 3,200 (25%) showed an effect of 50% or more. The list shows a part of the results.
Entries annotated with measured % Inhibition
Observation type: % Inhibition (%)

>>> result("O=C(NCc1cccc2ccccc12)C(c1cc2ccccc2o1)N1CCN(C(c2ccccc2)c2ccccc2)CC1 (centres unmarked) [TCMDC-141007]")
25.05
>>> result("Nc1cccc(CNCc2ccc(-c3ccc(-c4nc5ccccc5[nH]4)s3)cc2)c1 [TCMDC-132927]")
-10.94
>>> result("CC(=O)N/N=C/[C@H](CCc1ccccc1)NC(=O)[C@H](CC(C)C)NC(=O)c1ccc(F)cc1 [TCMDC-135965]")
1.649
>>> result("NC1=NCN(OCc2ccc(Cl)c(Cl)c2)C(N)=N1 [TCMDC-131661]")
6.901
>>> result("Cc1cccc2[nH]c(-c3ccc(-c4cccc(NC(=O)c5cccc(C(N)=O)c5)c4)cc3)nc12 [TCMDC-132197]")
5.465
>>> result("CCc1nc(N)nc(N)c1-c1ccc(C(C)(C)C)cc1 [TCMDC-137367]")
5.64
>>> result("Cc1ccc(NC(=O)C2CCC2)cc1-c1ccc(C(=O)NCC2CC2)cc1 [TCMDC-138709]")
-25.69
>>> result("CCCCc1cc(NCc2ccncc2)nc(Nc2ccccc2)n1 [TCMDC-133995]")
8.477

Data provenance is paper PMC4552634.
